Target: catalytic kinase (JH1) domain of human JAK2 (Homo sapiens, UniProt O60674)
Construct: Catalytic activities of recombinant JAK2, JAK3 and TYK2 kinase domain
Sequence (O60674 849-1124 limits assumed): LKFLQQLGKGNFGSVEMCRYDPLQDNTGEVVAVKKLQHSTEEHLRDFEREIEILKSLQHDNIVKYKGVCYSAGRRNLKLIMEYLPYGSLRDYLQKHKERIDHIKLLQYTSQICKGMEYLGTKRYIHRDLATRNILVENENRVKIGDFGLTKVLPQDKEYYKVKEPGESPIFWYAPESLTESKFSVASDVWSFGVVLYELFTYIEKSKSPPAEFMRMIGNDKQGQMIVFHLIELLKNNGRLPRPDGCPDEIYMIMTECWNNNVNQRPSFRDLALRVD
Assay: ADP-Glo kinase assay, JAK2 kinase domain
Format: biochemical
Settings: 0.2 nM recombinant JAK2 kinase domain, 50 μM JAK3-974 peptide, 15 μM ATP, 100 minutes; read-out: JAK2 biochem IC50 (nM) Mean
Structures can show the parent of a compound that is named as a salt.

| MOLECULE | IC50 / nM |
| --- | --- |
| COc1cc(-c2cc3c(N4CC5CCC(C4)N5C4COC4)ccnn3c2)cnn1 | 5700 |
| Cn1cc(-c2cc3c(N4CC5CCC(C4)N5[C@H]4C[C@@H](C#N)C4)ncnc3[nH]2)cn1 | 260 |
| CN1CC(N2C3CCC2CN(c2ccnc4[nH]c(-c5cnn(C)c5)nc24)C3)C1 [Example 12, trifluoroacetate] | 2300 |
| Cn1cc(-c2cc3c(N4CC5CCC(C4)N5[C@H]4CC[C@@H]4O)ccnn3c2)cn1 (racemic) | 7700 |

###

Target: catalytic kinase (JH1) domain of human JAK1 (Homo sapiens)
Construct: 4 nM of recombinant JAK1 kinase domain is used to phosphorylate
Sequence (P23458 875-1153 limits assumed): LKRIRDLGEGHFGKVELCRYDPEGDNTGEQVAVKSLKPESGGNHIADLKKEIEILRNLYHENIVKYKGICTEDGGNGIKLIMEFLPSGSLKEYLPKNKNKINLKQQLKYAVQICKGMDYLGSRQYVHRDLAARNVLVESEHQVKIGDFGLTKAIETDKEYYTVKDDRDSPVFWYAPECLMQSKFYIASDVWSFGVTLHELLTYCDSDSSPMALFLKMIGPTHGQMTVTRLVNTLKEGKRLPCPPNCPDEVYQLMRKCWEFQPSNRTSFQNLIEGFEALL
Assay: ADP-Glo kinase assay, JAK1 kinase domain
Format: biochemical
pIC50: −log10 of the molar value.

| COMPOUND | VALUE PREFIX | pIC50 |
| --- | --- | --- |
| Cn1cc(-c2cc3c(N4CC5CCC(C4)N5[C@H]4C[C@H](C#N)C4(C)C)ccnn3c2)cn1 (single isomer, unassigned) | = | 6.02 |
| Cn1cc(-c2cn3nccc(N4CC5CCC(C4)N5[C@H]4C[C@@H](C#N)C4)c3n2)cn1 | = | 6.64 |
| Cn1cc(-c2cc3c(N4CC5CCC(C4)N5[C@@H]4CCC45COC5)ccnn3c2)cn1 (single isomer, unassigned) | = | 5.66 |
| Cn1cc(-c2nc3c(N4CC5CCC(C4)N5C4COC4)ccnc3[nH]2)cn1 | = | 6.56 |
| Cn1cc(-c2cc3c(N4CC5CCC(C4)N5C4CC5(COC5)C4)ccnn3c2)cn1 | = | 5.87 |
| CO[C@H]1CC[C@@H]1N1C2CCC1CN(c1ccnn3cc(-c4cnn(C)c4)cc13)C2 (racemic) | < | 5.00 |
| Cn1cc(-c2cn3nccc(N4CC5CCC(C4)N5[C@H]4C[C@H](C#N)C4)c3n2)cn1 | = | 7.82 |

###

Target: catalytic kinase (JH1) domain of human TYK2 (Homo sapiens, UniProt P29597)
Construct: recombinantly generated catalytic kinase (also known as JH1) domain of human JAK1, JAK2, JAK3 and TYK2
Sequence (P29597 897-1176 limits assumed): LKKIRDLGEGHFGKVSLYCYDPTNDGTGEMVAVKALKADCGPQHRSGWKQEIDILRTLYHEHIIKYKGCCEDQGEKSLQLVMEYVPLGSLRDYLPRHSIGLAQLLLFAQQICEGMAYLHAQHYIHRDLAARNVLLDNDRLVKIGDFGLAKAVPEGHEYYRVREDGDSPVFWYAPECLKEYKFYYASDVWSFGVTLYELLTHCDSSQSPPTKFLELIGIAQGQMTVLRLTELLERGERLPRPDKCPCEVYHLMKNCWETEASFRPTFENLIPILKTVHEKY
Assay: ADP-Glo kinase assay, TYK2 kinase domain
Type: biochemical
Conditions: 2 nM recombinant TYK2 kinase domain, 50 μM JAK3-974 peptide, 10 μM ATP, 100 minutes; read-out: TYK2 biochem IC50 (nM) Mean
Structures can show the parent of a compound that is named as a salt.
Overview of reported IC50 across a group of compounds:

| COMPOUND | IC50 |
| --- | --- |
| COC[C@]1(C#N)C[C@@H](N2C3CCC2CN(c2ccnn4cc(-c5cnn(C)c5)cc24)C3)C1 [Example 43] | 3.7 nM |
| Cn1cc(-c2cc3c(N4CC5CCC(C4)N5[C@H]4C[C@@H](C#N)C4)ccnc3[nH]2)cn1 [Example 16] | 17.5 nM |
| Cn1cc(-c2nc3c(N4CC5CCC(C4)N5C4CNC4)ccnc3[nH]2)cn1 [Example 11, hydrochloride] | 330 nM |
| Cn1cc(-c2cc3c(N4CC5CCC(C4)N5[C@H]4C[C@@H](C#N)C4)ncnc3[nH]2)cn1 [Example 64] | 41.5 nM |
| CN1CC(N2C3CCC2CN(c2ccnc4[nH]c(-c5cnn(C)c5)nc24)C3)C1 [Example 12, trifluoroacetate] | 580 nM |
| Cn1cc(-c2nc3c(N4CC5CCC(C4)N5[C@H]4C[C@@](C)(C#N)C4)ccnc3[nH]2)cn1 [Example 2] | 1.2 nM |
| Cn1cc(-c2nc3c(N4CC5CCC(C4)N5[C@H]4C[C@](C)(C#N)C4)ccnc3[nH]2)cn1 [Example 1] | 13.4 nM |
| CO[C@H]1C[C@@H](N2C3CCC2CN(c2ccnc4[nH]c(-c5cnn(C)c5)nc24)C3)C1 [Example 6] | 305 nM |
| CO[C@H]1C[C@H](N2C3CCC2CN(c2ccnn4cc(-c5cnn(C)c5)cc24)C3)C1 [Example 29] | 187 nM |
| Cn1cc(-c2nc3c(N4CC5CCC(C4)N5[C@H]4CC[C@@H]4O)ccnc3[nH]2)cn1 (single isomer, unassigned) [Example 7] | 610 nM |
| Cn1cc(-c2nc3c(N4CC5CCC(C4)N5[C@H]4CC[C@H]4O)ccnc3[nH]2)cn1 (racemic) [Example 8] | 830 nM |
| COC1CC(N2C3CCC2CN(c2ccnn4cc(-c5cnn(C)c5)cc24)C3)C1 (stereo not drawn) [Example 24] | 19 nM |
| c1cc(-c2cc3c(N4CC5CCC(C4)N5C4COC4)ccnn3c2)cnn1 [Example 56] | 90 nM |
| Cn1cc(-c2cc3c(N4CC5CCC(C4)N5C4CC(C#N)C4)ccnc3[nH]2)cn1 (stereo not drawn) [Example 17] | 2.8 nM |
| Cn1cc(-c2cc3c(N4CC5CCC(C4)N5[C@H]4C[C@H](CC#N)C4)ccnn3c2)cn1 [Example 45] | 195 nM |
| Cn1cc(-c2cc3c(N4CC5CCC(C4)N5C4(CC#N)COC4)ccnn3c2)cn1 [Example 20] | 40.5 nM |
| Cn1cc(-c2nc3c(N4CC5CCC(C4)N5[C@H]4C[C@@H](C#N)C4)ccnc3[nH]2)cn1 [Example 4] | 2.47 nM |
| COc1cc(-c2cc3c(N4CC5CCC(C4)N5C4COC4)ccnc3[nH]2)ccn1 [Example 18] | 30.5 nM |
| Cn1cc(-c2cc3c(N4CC5CCC(C4)N5[C@H]4C[C@@H](O)C4)ccnn3c2)cn1 [Example 32] | 460 nM |
| Cn1cc(-c2cc3c(N4CC5CCC(C4)N5C4CC(F)(F)C4)ccnn3c2)cn1 [Example 52] | 1.9 nM |
| CO[C@H]1C[C@@H](N2C3CCC2CN(c2ccnn4cc(-c5cnn(C)c5)cc24)C3)C1 [Example 30] | 367 nM |
